Values of IC50 for Dihydroorotate dehydrogenase (quinone), mitochondrial (Homo sapiens), collected from a number of published sources:
Provide only the numeric value, understood in µM.

Solved entries (count: 4):
| Compound | Value Type | Measured Value |
| --- | --- | --- |
| COc1ccccc1NC(=O)c1cccc2nc(-c3cc(Br)nn3-c3ncccc3Cl)[nH]c12 | IC50 | 0.178 |
| CCC(C)Oc1cc(NC(=O)/C(C#N)=C(/C)O)c(F)cc1-c1cccc(Cl)c1 (stereo unspecified) | IC50 | 0.0201 |
| FC(F)(F)c1ccc(Nc2[nH]nc3c2CCCC3)cc1 | IC50 | 6.2 |
| O=C(O)C1=C(C(=O)Nc2ccc(-c3cccc(OC(F)(F)F)c3)cc2Cl)CCC1 | IC50 | 0.29 |

Note: attention shifts to another entry.
Incoming: If you can, please state the reported IC50 value of O=C(O)c1cc(F)cc2[nH]c(-c3ccc(-c4ccc(NC(=O)C5CC5)cc4F)cc3F)nc12 .
Outgoing: 48

* * *

Values of log10 of IC50 for Dihydroorotate dehydrogenase (quinone), mitochondrial (Homo sapiens, UniProt Q02127), collected from a number of published sources:
Hello, just confirming the data are log10 of IC50 with units of nM.

Incoming: Value wanted: log10 of IC50 (Dihydroorotate dehydrogenase (quinone), mitochondrial (Homo sapiens, UniProt Q02127)) of entry CCOc1cc(NC(=O)/C(C#N)=C(/C)O)c(F)cc1-c1cccc(OC)c1
Outgoing: 1.62

Incoming: Value wanted: log10 of IC50 (Dihydroorotate dehydrogenase (quinone), mitochondrial (Homo sapiens, UniProt Q02127)) of entry CCn1c(CO)nn(-c2nc(O[C@@H](C)C(F)(F)F)c(C(=O)Nc3c(Cl)ccnc3OC)cc2F)c1=O
Outgoing: -0.52

Incoming: Value wanted: log10 of IC50 (Dihydroorotate dehydrogenase (quinone), mitochondrial (Homo sapiens, UniProt Q02127)) of entry CCn1c(CO)nn(-c2nc(O[C@@H](C)C(F)(F)F)c(C(=O)Nc3cnccc3Cl)cc2F)c1=O
Outgoing: 0.67

Incoming: Value wanted: log10 of IC50 (Dihydroorotate dehydrogenase (quinone), mitochondrial (Homo sapiens, UniProt Q02127)) of entry COc1cc(-c2cc(C(=O)O)c3ccccc3n2)ccc1OCC(=O)NCc1cccnc1
Outgoing: 2.85

Incoming: Value wanted: log10 of IC50 (Dihydroorotate dehydrogenase (quinone), mitochondrial (Homo sapiens, UniProt Q02127)) of entry C/C(O)=C(\C#N)C(=O)Nc1cc(OC(C)C)c(C(=O)Nc2c(F)cccc2F)cc1F
Outgoing: 1.56

Incoming: Value wanted: log10 of IC50 (Dihydroorotate dehydrogenase (quinone), mitochondrial (Homo sapiens, UniProt Q02127)) of entry Cc1cc(O)n2nc(SCc3ccccc3Cl)nc2n1
Outgoing: 4.08

Incoming: Value wanted: log10 of IC50 (Dihydroorotate dehydrogenase (quinone), mitochondrial (Homo sapiens, UniProt Q02127)) of entry COC(=O)NC(=O)c1c(C)c(-c2ccc(-c3ccccc3F)cc2)nc2ccc(F)cc12
Outgoing: 3.10

Incoming: Value wanted: log10 of IC50 (Dihydroorotate dehydrogenase (quinone), mitochondrial (Homo sapiens, UniProt Q02127)) of entry Cc1c(-c2ccc(-c3ccccc3F)cc2)nc2ccc(F)cc2c1C(O)C(F)(F)F (stereo unspecified)
Outgoing: 2.91

Incoming: Value wanted: log10 of IC50 (Dihydroorotate dehydrogenase (quinone), mitochondrial (Homo sapiens, UniProt Q02127)) of entry CONC(=O)c1c(C)c(-c2ccc(-c3ccccc3F)cc2)nc2ccc(F)cc12
Outgoing: -0.92

Incoming: Value wanted: log10 of IC50 (Dihydroorotate dehydrogenase (quinone), mitochondrial (Homo sapiens, UniProt Q02127)) of entry O=C(O)c1ccc(/C=N/c2cccc3ccccc23)cc1
Outgoing: 4.19

Incoming: Value wanted: log10 of IC50 (Dihydroorotate dehydrogenase (quinone), mitochondrial (Homo sapiens, UniProt Q02127)) of entry COc1cc(-c2cc(C(=O)O)c3ccccc3n2)ccc1OCC(=O)Nc1ccccc1C
Outgoing: 3.77

Incoming: Value wanted: log10 of IC50 (Dihydroorotate dehydrogenase (quinone), mitochondrial (Homo sapiens, UniProt Q02127)) of entry O=C(NC1CC1)c1ccc(-n2cnc3cc(C(F)(F)F)ccc32)s1
Outgoing: 4.24

Incoming: Value wanted: log10 of IC50 (Dihydroorotate dehydrogenase (quinone), mitochondrial (Homo sapiens, UniProt Q02127)) of entry COC(=O)/C(C#N)=C1\SCC(=O)N1c1cccc(Cl)c1
Outgoing: 3.93

Incoming: Value wanted: log10 of IC50 (Dihydroorotate dehydrogenase (quinone), mitochondrial (Homo sapiens, UniProt Q02127)) of entry Cc1c(-c2ccc(-c3ccccc3F)cc2)nc2ccc(F)cc2c1CO
Outgoing: 2.22

Incoming: Value wanted: log10 of IC50 (Dihydroorotate dehydrogenase (quinone), mitochondrial (Homo sapiens, UniProt Q02127)) of entry COc1cccc(-c2ccc(NC(=O)C3=C(C(=O)O)CCC3)c(OC)c2)c1
Outgoing: 2.23

* * *

Values of IC50 for Dihydroorotate dehydrogenase (quinone), mitochondrial (Homo sapiens), collected from a number of published sources:
Provide only the numeric value, understood in nM.

| Molecule | Reading Unit | IC50 |
| --- | --- | --- |
| CC/C(O)=C(\C#N)C(=O)Nc1ccc(OS(=O)(=O)C(F)(F)F)cc1 | nM | 150 |
| COc1cc(-c2cc(C(=O)O)c3ccccc3n2)ccc1OCC(=O)NC12CC3CC(CC(C3)C1)C2 | nM | 1700 |
| CC(C)c1n[nH]c(Nc2ccc(C(F)(F)F)cc2)c1C#N | nM | 4000 |
| COc1cc(-c2cc(C(=O)O)c3ccccc3n2)ccc1OCC(=O)Nc1ccc(Cl)cc1 | nM | 500 |
| CCCCCCNC(=O)COc1ccc(-c2cc(C(=O)O)c3ccccc3n2)cc1OC | nM | 2700 |

Incoming: Value wanted: IC50 (Dihydroorotate dehydrogenase (quinone), mitochondrial (Homo sapiens)) of entry Cc1c(-c2ccc(-c3ccccc3F)cc2)nc2ccc(F)cc2c1C(N)=O
Outgoing: 47

Incoming: Value wanted: IC50 (Dihydroorotate dehydrogenase (quinone), mitochondrial (Homo sapiens)) of entry Cc1c(-c2ccc(-c3ccccc3F)cc2)nc2ccc(F)cc2c1C(=O)C(F)(F)F
Outgoing: 74

Incoming: Value wanted: IC50 (Dihydroorotate dehydrogenase (quinone), mitochondrial (Homo sapiens)) of entry CC/C(O)=C(\C#N)C(=O)Nc1ccc(-c2cccc(OC(F)(F)F)c2)c(C(=O)OC)c1
Outgoing: 27

Incoming: Value wanted: IC50 (Dihydroorotate dehydrogenase (quinone), mitochondrial (Homo sapiens)) of entry COc1cccc(-c2cc(F)c(NC(=O)/C(C#N)=C(/C)O)cc2OC(C)C)c1
Outgoing: 13.9

Incoming: Value wanted: IC50 (Dihydroorotate dehydrogenase (quinone), mitochondrial (Homo sapiens)) of entry COc1ccc2c(C(=O)O)c(O)c(-c3ccc(Cl)cc3)nc2c1
Outgoing: 151000

Incoming: Value wanted: IC50 (Dihydroorotate dehydrogenase (quinone), mitochondrial (Homo sapiens)) of entry CCn1c(CO)nn(-c2nc(O[C@@H](C)C(F)(F)F)c(C(=O)Nc3c(C)cnc(OC)c3Cl)cc2F)c1=O
Outgoing: 0.3

Incoming: Value wanted: IC50 (Dihydroorotate dehydrogenase (quinone), mitochondrial (Homo sapiens)) of entry CCC(CC)Oc1cc(NC(=O)/C(C#N)=C(/C)O)c(F)cc1-c1cccc(OC)c1
Outgoing: 16.4

Incoming: Value wanted: IC50 (Dihydroorotate dehydrogenase (quinone), mitochondrial (Homo sapiens)) of entry COc1ccccc1-c1ccc(NC(=O)C2=C(C(=O)O)CCC2)c(Cl)c1
Outgoing: 310

Incoming: Value wanted: IC50 (Dihydroorotate dehydrogenase (quinone), mitochondrial (Homo sapiens)) of entry CC/C(O)=C(\C#N)C(=O)Nc1ccc(-c2ccc(F)cc2F)c(C(=O)OC)c1
Outgoing: 31

* * *

Values of IC50 for UniProt Q02127, collected from a number of published sources:
Provide only the numeric value, understood in µM.

| Structure Smiles | Tested Target | Reading Unit | Measured Value |
| --- | --- | --- | --- |
| Cc1cc(Nc2ccc(S(F)(F)(F)(F)F)c(F)c2)n2nc(C(C)(F)F)nc2n1 | UniProt Q02127 | µM | 3.7 |

Incoming: Value wanted: IC50 (UniProt Q02127) of entry O=C(Nc1ccccc1C(=O)O)c1ccc(-c2ccccc2)cc1
Outgoing: 5

Incoming: Value wanted: IC50 (UniProt Q02127) of entry O=C(/C=C/c1ccc(O)c(C(=O)O)c1)c1ccc(Cl)cc1
Outgoing: 6.06

Incoming: Value wanted: IC50 (UniProt Q02127) of entry C/C(O)=C(\C#N)C(=O)Nc1cc(OC(C)C)c(C(=O)Nc2ccccc2Br)cc1F
Outgoing: 0.0415

* * *

Values of IC50 for Dihydroorotate dehydrogenase (quinone), mitochondrial (Homo sapiens), collected from a number of published sources:

Solved entries (count: 9):
| Compound | IC50 |
| --- | --- |
| C/C(O)=C(\C#N)C(=O)Nc1ccc(-c2ccccc2Cl)cc1C(F)(F)F | 170 nM |
| Cc1nc2c(Cl)cc(F)cc2n1-c1ccc(C(=O)NC2CC2)s1 | > 30000 nM |
| C/C(O)=C(\C#N)C(=O)Nc1ccc(-c2ccccc2)cc1Cl | 320 nM |
| COc1cc2c(cc1C(=O)Nc1cc(C(C)(C)C)[nH]n1)CCCCC2 | > 30000 nM |
| COc1cccc(-c2cc(F)c(NC(=O)/C(C#N)=C(/C)O)cc2OCC2CCCCC2)c1 | 43.1 nM |
| Cc1cc(Nc2ccc(C(F)(F)F)nc2)n2nc(C(C)(F)F)nc2n1 | > 100000 nM |
| COc1cc(-c2cc(C(=O)O)c3ccccc3n2)ccc1OCC(=O)Nc1ccc(C(F)(F)F)cc1 | 2400 nM |
| COc1cc(-c2cc(C(=O)O)c3ccccc3n2)ccc1OCC(=O)Nc1ccccc1C(F)(F)F | 300 nM |
| CC/C(O)=C(\C#N)C(=O)Nc1ccc(-c2cccc(OC)c2)c(C(=O)OC)c1 | 26 nM |

Note: attention shifts to another entry.
Incoming: Value wanted: IC50 (Dihydroorotate dehydrogenase (quinone), mitochondrial (Homo sapiens)) of entry CCC(C)Oc1cc(NC(=O)/C(C#N)=C(/C)O)c(F)cc1-c1cc(F)cc(F)c1 (stereo not given)
Outgoing: 22.6 nM
